# STUDY TARGET: recombinant rhinovirus 3C protease, serotype 14 (Human rhinovirus 14, UniProt P03303)
# Construct: Recombinant rhinovirus 3C proteases; made in house
# Sequence (P03303 1538-1719): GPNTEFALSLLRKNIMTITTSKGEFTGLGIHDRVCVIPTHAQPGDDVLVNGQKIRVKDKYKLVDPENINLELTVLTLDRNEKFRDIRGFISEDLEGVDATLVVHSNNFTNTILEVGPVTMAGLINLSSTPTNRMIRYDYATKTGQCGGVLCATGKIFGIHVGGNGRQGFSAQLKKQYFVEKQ
# TEST: Inhibition of rhinovirus 3C protease (FRET assay), serotype 14
# Type: biochemical
Lab note: cut-off is 4 µM. Strictly less in Ki is yes (1). Exactly 4 µM or more is no (0).

Asked: In the record for CC(C)C[C@H](NC(=O)OCc1ccccc1)C(=O)N[C@@H](Cc1ccccc1)C(=O)N[C@@H](C[C@@H]1CCNC1=O)C(=O)c1ccccc1 [Compound 26, Cbz-L-Leu-L-Phe-L-[(S)-Pyrrol-Ala]-Ph] , is Ki less than 4 µM?
Given back: yes (1)

Asked: Please state whether Ki is below 4 µM for CC(=O)NC[C@H](NC(=O)[C@H](Cc1ccccc1)NC(=O)[C@H](CC(C)C)NC(=O)OCc1ccccc1)C(=O)COCCc1ccccc1 [Compound 18]
Given back: no (0)

Asked: Report whether reported Ki is lower than 4 µM (strictly) for CC(C)C[C@H](NC(=O)OCc1ccccc1)C(=O)N[C@@H](Cc1ccccc1)C(=O)N[C@@H](CNC(=O)OC(C)(C)C)C(=O)c1nc2ccccc2s1 [Compound 6]
Given back: no (0)

Asked: Please let me know if C#CC(=O)[C@H](CNC(C)=O)NC(=O)[C@H](Cc1ccccc1)NC(=O)[C@H](CNC(C)=O)NC(=O)OCc1ccccc1 [Compound 16] shows Ki below 4 µM.
Given back: yes (1)

Asked: Ki under 4 µM? Item: CC(C)C[C@H](NC(=O)OCc1ccccc1)C(=O)N[C@@H](Cc1ccccc1)C(=O)N[C@@H](CCC(N)=O)C(=O)c1nc2ccccc2s1 [Compound 20, Cbz-L-Leu-L-Phe-L-Gln-2-Benzthiazole]
Given back: yes (1)
